# T-maze % control at 10 mg/kg listing for each entry below
# Test system: mice
# assay.procedure: T-maze Continuous Alternation Task (T-CAT), scopolamine-induced cognitive impairment
# Format: in vivo
# applied.conditions: mouse; dosed orally at 10 mg/kg; scopolamine-induced deficit

entry.smiles | study.target | T-maze % control at 10 mg/kg
CC1(C)[C@H](CNc2ccc(F)cc2OC(F)F)[C@H]1c1ccc(S(N)(=O)=O)cc1 | mice | 81 % control
Cc1cc(F)c(F)cc1NC[C@@H]1[C@@H](c2ccc(S(N)(=O)=O)cc2)C1(C)C | mice | 70 % control
CC1(C)[C@@H](CNc2ccc(F)cc2OC(F)F)[C@@H]1c1ccc(S(N)(=O)=O)cc1 | mice | 77 % control
CC1(C)[C@H](CNc2ccc(F)cc2)[C@H]1c1ccc(S(N)(=O)=O)cc1 | mice | 80 % control
